Where do the numbers come from? From patent US8700113B2.

Molecular target: MBL (Homo sapiens, UniProt P11226)
Sequence (P11226 21-248, species assumed): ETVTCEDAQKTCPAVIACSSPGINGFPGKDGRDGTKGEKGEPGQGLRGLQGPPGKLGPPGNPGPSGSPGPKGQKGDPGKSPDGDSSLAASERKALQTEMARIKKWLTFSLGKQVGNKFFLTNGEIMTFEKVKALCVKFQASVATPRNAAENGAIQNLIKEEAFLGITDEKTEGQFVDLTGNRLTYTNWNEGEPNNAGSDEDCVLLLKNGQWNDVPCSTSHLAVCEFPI
Assay: Affinity of common carbohydrate moieties for MBL
Format: binding
Details: value = moieties ranked next below (>) or above (<)
measurement type: affinity for MBL, rank order of common carbohydrate moieties

| compound | target or test system | reported value |
| --- | --- | --- |
| O=C[C@H](O)[C@@H](O)[C@@H](O)[C@H](O)CO [D-galactose] | MBL (Homo sapiens, UniProt P11226) | D-lyxose |
| O=C[C@H](O)[C@H](O)[C@H](O)CO [D-ribose] | MBL (Homo sapiens, UniProt P11226) | > D-lyxose |
| O=C[C@H](O)[C@@H](O)[C@@H](O)CO [L-arabinose] | MBL (Homo sapiens, UniProt P11226) | D-lyxose |
| O=C[C@@H](O)[C@H](O)[C@H](O)CO [D-arabinose] | MBL (Homo sapiens, UniProt P11226) | > D-lyxose |
| OC[C@H]1O[C@@H](O[C@H]2[C@H](O)[C@@H](O)C(O)O[C@@H]2CO)[C@H](O)[C@@H](O)[C@H]1O (stereo partly drawn) [lactose] | MBL (Homo sapiens, UniProt P11226) | D-lyxose |

----------
Target: MBL (Homo sapiens)
Assay: Affinity of common carbohydrate moieties for MBL
Format: binding
measurement type: affinity / binding to MBL in words

| molecule | target or test system | reported value |
| --- | --- | --- |
| O=C[C@H](O)[C@@H](O)[C@H](O)[C@H](O)CO | MBL (Homo sapiens) | high affinity |
| CC(=O)N[C@H]1C(O)O[C@H](CO)[C@@H](O)[C@@H]1O (stereo partly shown) | MBL (Homo sapiens) | high affinity |
| O=C[C@@H](O)[C@@H](O)[C@H](O)[C@H](O)CO | MBL (Homo sapiens) | high affinity |
